All values here come from ChEMBL document CHEMBL5576104.

- test-name: Cytotoxicity against human HaCaT cells assessed as cell viability at 5 uM incubated for 24 hrs by EZ-Cytox assay relative to control
- Assay type: toxicity, cell-based
- condition-description: read-out: Activity
experimental-readout: viability at 24 h, 5 µM (%)
# unit: % | format: bare number

Entry O=[N+]([O-])c1ccc2oc(=S)[nH]c2c1 , viability at 24 h, 5 µM reported as 91

----------
- assayed-system: Mushroom tyrosinase (Agaricus bisporus, UniProt O42713+Q00024+C7FF04+C7FF05)
- test-name: Inhibition of mushroom tyrosinase using L-tyrosine as substrate incubated for 30 mins by absorbance based microplate reader analysis
- Type: protein assay
Binarize IC50 at 3000 nM; below is Satisfied, at or above is Not satisfied.

Some entries whose results are on file:
>>> group_label("Sc1nc2ccccc2o1")
"Satisfied"
>>> group_label("S=c1[nH]c2ccc(Cl)cc2o1")
"Satisfied"

Now look at this entry.
In the record for O=[N+]([O-])c1cccc2oc(S)nc12 , is IC50 less than 3000 nM? Not satisfied

----------
Reported log10 of IC50 values for a set of compounds
- assayed-system: Mushroom tyrosinase (Agaricus bisporus, UniProt O42713+Q00024+C7FF04+C7FF05)
- test-name: Inhibition of mushroom tyrosinase using L-DOPA as substrate incubated for 30 mins by absorbance based microplate reader analysis
- Format: protein assay
Short version: log10 scale, IC50, µM.

>>> experimental_result("Cc1cccc2oc(S)nc12")
0.33
>>> experimental_result("O=[N+]([O-])c1ccc2nc(S)oc2c1")
1.14
>>> experimental_result("S=c1[nH]c2ccc(Cl)cc2o1")
0.80
>>> experimental_result("O=[N+]([O-])c1ccc2oc(=S)[nH]c2c1")
0.76
>>> experimental_result("O=[N+]([O-])c1cccc2oc(S)nc12")
1.38
>>> experimental_result("Cc1ccc2oc(=S)[nH]c2c1")
-1.05

Entry Sc1nc2ccccc2o1 , log10 of IC50 reported as -1.10

Entry Cc1ccc2[nH]c(=S)oc2c1 , log10 of IC50 reported as -1.10

----------
- test-name: Cytotoxicity against human HaCaT cells assessed as cell viability at 20 uM incubated for 24 hrs by EZ-Cytox assay relative to control
- Type: toxicity, cell-based
- condition-description: read-out: Activity
Reported viability at 24 h, 20 µM values for a set of molecules
# unit: % | format: bare number

>>> experimental_result("O=[N+]([O-])c1ccc2oc(=S)[nH]c2c1")
84

Shift focus to the following entry.
Entry O=[N+]([O-])c1cccc2oc(S)nc12 , viability at 24 h, 20 µM reported as 94

----------
Reported log10(IC50) values for a set of molecules
- assayed-system: Mushroom tyrosinase (Agaricus bisporus, UniProt O42713+Q00024+C7FF04+C7FF05)
- test-name: Inhibition of mushroom tyrosinase using L-tyrosine as substrate incubated for 30 mins by absorbance based microplate reader analysis
- Format: protein assay
Short version: log10 scale, IC50, µM.

For orientation, consider the following solved cases.
>>> experimental_result("O=[N+]([O-])c1ccc2nc(S)oc2c1")
1.09
>>> experimental_result("Cc1ccc2oc(=S)[nH]c2c1")
-1.00
>>> experimental_result("Cc1cccc2oc(S)nc12")
0.45
>>> experimental_result("O=[N+]([O-])c1ccc2oc(=S)[nH]c2c1")
0.38

Shift focus to the following entry.
Entry Cc1ccc2[nH]c(=S)oc2c1 , log10(IC50) reported as -0.89
